Molecular target: T1, Human IL2Rγ extracellular domain expressed with a C-terminal myc-myc-hexahistidine tag (human)
T1 construct: also called hIL-2Rg-MMH; hIL-2RG-MMH
T1 chain: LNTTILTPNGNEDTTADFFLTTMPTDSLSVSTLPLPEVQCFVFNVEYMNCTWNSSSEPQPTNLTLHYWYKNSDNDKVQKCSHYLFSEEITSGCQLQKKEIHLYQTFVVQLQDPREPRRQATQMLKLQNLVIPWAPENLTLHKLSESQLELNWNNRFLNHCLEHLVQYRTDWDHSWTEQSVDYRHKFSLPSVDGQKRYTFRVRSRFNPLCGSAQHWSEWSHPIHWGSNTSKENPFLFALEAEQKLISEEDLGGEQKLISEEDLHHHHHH
Test: SPR Biacore 4000, mAb captured by anti-hFc, HBS-ET, 25C
readoutType: t1/2 (min)

>>> valuemeasured("H4H12858P (antibody, human IgG4 S228P, kappa, V domains shown, anti-IL2Rγ monoclonal antibody expressed with human IgG4 Fc; also called REGN9433) VH: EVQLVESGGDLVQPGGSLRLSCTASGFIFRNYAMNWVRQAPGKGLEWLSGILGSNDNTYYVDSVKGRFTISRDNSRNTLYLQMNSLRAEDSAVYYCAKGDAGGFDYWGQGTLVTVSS VL: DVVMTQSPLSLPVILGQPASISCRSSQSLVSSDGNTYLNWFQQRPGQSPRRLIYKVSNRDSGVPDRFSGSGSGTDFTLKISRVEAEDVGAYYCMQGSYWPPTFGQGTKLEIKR")
37
